Recorded values, source ChEMBL document CHEMBL1147809.

Tested on: HBL
Assay: Antiproliferative activity against human HBL cell line at 1000 uM relative to control
Type: functional
*1 amine or outer side, *2 acyl side, *3 side chain or, on linkers, in order; H or OH if unused. Where a SMILES comes first, the peptide text is derived from it. [ ]: non-standard residue; d: D form. X1 = O=C(C(N[*:1])C1C2CC3CC(C2)CC1C3)[*:2]; X2 = O=C(C1(N[*:1])C2CC3CC(C2)CC1C3)[*:2]
Reported inhibition at 1000 µM is given for each of the following molecules.
In your response, the unit should come after the numeric value.

Examples with answers:
INSERT INTO assay_data (molecule, observed) VALUES
  ('N[C@@H](Cc1ccc(O)cc1)C(=O)NC1(C(=O)O)C2CC3CC(C2)CC1C3 (some centres undefined)', '14%'),
  ('N[C@@H](Cc1ccc(O)cc1)C(=O)N[C@@H](C(=O)NCC(=O)O)C1C2CC3CC(C2)CC1C3 (some centres undefined)', '19.4%'),
  ('CSCC[C@H](NC(=O)[C@H](Cc1ccccc1)NC(=O)CNC(=O)CNC(=O)[C@@H](N)Cc1ccc(O)cc1)C(=O)O', '10.8%');

Ask: Record request: inhibition at 1000 µM value, item CSCC[C@H](NC(=O)[C@H](Cc1ccccc1)NC(=O)CNC(=O)C(NC(=O)[C@@H](N)Cc1ccc(O)cc1)C1C2CC3CC(C2)CC1C3)C(=O)O (some centres undefined) (H-Y[X1]GFM-OH)
Result: 23.2%

Ask: Reported inhibition at 1000 µM for CSCC[C@H](NC(=O)[C@H](Cc1ccccc1)NC(=O)CNC(=O)CNC(=O)[C@@H](N)Cc1ccc(O)cc1)C(=O)NC1(C(=O)O)C2CC3CC(C2)CC1C3 (some centres undefined) (H-YGGFM[X2]-OH) : what is it?
Result: 34.4%

Ask: Record request: inhibition at 1000 µM value, item N[C@@H](Cc1ccc(O)cc1)C(=O)N[C@@H](C(=O)O)C1C2CC3CC(C2)CC1C3 (some centres undefined)
Result: 7.3%

Ask: Reported inhibition at 1000 µM for CSCC[C@H](NC(=O)[C@H](Cc1ccccc1)NC(=O)CNC(=O)C1(NC(=O)[C@@H](N)Cc2ccc(O)cc2)C2CC3CC(C2)CC1C3)C(=O)O (some centres undefined) (H-Y[X2]GFM-OH) : what is it?
Result: 18.3%

Ask: Consider the molecule shown here: N[C@@H](Cc1ccc(O)cc1)C(=O)N[C@H](C(=O)NCC(=O)O)C1C2CC3CC(C2)CC1C3 (some centres undefined) What is its recorded inhibition at 1000 µM?
Result: 17.9%

Ask: # get_value(readout='inhibition at 1000 µM', item= N[C@@H](Cc1ccc(O)cc1)C(=O)N[C@H](C(=O)O)C1C2CC3CC(C2)CC1C3 (some centres undefined) )
Result: 7.3%
